- Tested on: rabbits' platelet-rich plasma
- Assay Summary: Platelet aggregating activity using rabbits' platelet-rich plasma (method of Born et al.)
- Format: cell-based, rabbit
- Experimental Conditions: Oryctolagus cuniculus, Platelet, read-out: Platelet aggregating effect (EC50)
Quantity Name: EC50 (nM)
The reply should be a number in nM, with the unit left off.

Entry CCCCCCCCCCCCCCCCOCC(COP(=O)([O-])OCC[N+](C)(C)C)OC(C)=O (stereo not shown) [C16 PAF, reference compound] — recorded EC50 = 9
